Data provenance is ChEMBL document CHEMBL1131661.

# Lookup of reported pKi keyed by entry
Molecular target: Corticotropin-releasing factor receptor 1 (Homo sapiens, UniProt P34998)
Sequence (P34998 whole entry): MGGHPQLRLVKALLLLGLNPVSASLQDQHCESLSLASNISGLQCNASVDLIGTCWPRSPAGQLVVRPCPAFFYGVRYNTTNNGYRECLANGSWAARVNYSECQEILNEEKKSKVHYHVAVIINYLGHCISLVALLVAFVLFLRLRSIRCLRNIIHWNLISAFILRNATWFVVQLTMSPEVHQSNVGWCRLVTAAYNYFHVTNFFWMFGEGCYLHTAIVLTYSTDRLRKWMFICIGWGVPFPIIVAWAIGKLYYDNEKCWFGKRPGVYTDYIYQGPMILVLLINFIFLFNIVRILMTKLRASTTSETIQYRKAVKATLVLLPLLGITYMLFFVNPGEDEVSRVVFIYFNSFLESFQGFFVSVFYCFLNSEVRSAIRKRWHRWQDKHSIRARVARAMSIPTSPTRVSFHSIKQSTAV
Assay: Antagonistic activity for Corticotropin releasing factor receptor 1
pKi: −log10 of the molar value.
RESULT_TYPE: pKi

INSERT INTO assay_data (input_smiles, study_target, experimental_value) VALUES
  ('CSc1nn(-c2c(Cl)cc(Cl)cc2Cl)c2nc(C)nc(-c3ccccc3C(F)(F)F)c12', 'Corticotropin-releasing factor receptor 1 (Homo sapiens, UniProt P34998)', 7.48),
  ('CCN(CC1CC1)c1nc(C)nc(Nc2c(Cl)cc(Cl)cc2Cl)c1C', 'Corticotropin-releasing factor receptor 1 (Homo sapiens, UniProt P34998)', 8.70),
  ('COc1cc(Br)c(Nc2nc(C)nc(-c3ccccc3C(F)(F)F)c2[N+](=O)[O-])c(OC)c1', 'Corticotropin-releasing factor receptor 1 (Homo sapiens, UniProt P34998)', 7.64),
  ('COc1cc(Br)c(-n2nnc3c(-c4ccccc4C(F)(F)F)nc(C)nc32)c(OC)c1', 'Corticotropin-releasing factor receptor 1 (Homo sapiens, UniProt P34998)', 7.67),
  ('CCN(c1nc(C)nc(-c2ccccc2C(F)(F)F)n1)c1ccc(C(C)C)cc1Br', 'Corticotropin-releasing factor receptor 1 (Homo sapiens, UniProt P34998)', 8.26),
  ('Cc1cc(C)c(-n2c(C)c(C)c3c(-c4ccccc4C(F)(F)F)nc(C)nc32)c(C)c1', 'Corticotropin-releasing factor receptor 1 (Homo sapiens, UniProt P34998)', 8.01),
  ('COc1cc(Br)c(-n2c(=O)[nH]c3c(-c4ccccc4C(F)(F)F)nc(C)nc32)c(OC)c1', 'Corticotropin-releasing factor receptor 1 (Homo sapiens, UniProt P34998)', 6.69);
